# MEASURED_TARGET: ScLsb3
# RUN_DESCRIPTION: SPOT peptide array binding signal intensity (averaged, normalized) (arbitrary units (background-subtracted, floor 0; scale differs between SH3 domains)); higher = stronger binding of the SH3 domain to the peptide
MEASURED_PARAMETER: SPOT peptide array binding signal intensity
Give bare numbers.

WRPRIVPILPYITRL
148
MTKTPETSPPKRPMG
45.5
SRQAIPPPVPNRPGG
3290
LSKRLPLRFPEHTSS
492
DKKTKPTPPPKPSHL
1270

Now consider a different binder.
-- ask Give its SPOT peptide array binding signal intensity value. Item: `RMVRRRPLRVQFSAR`
-- reply 1400
